Values from patent US20190092852A1

Molecular target: T1, biotinylated human IL-33 (human, UniProt O95760 112-270, biotin-labeled with EZ-LINK NHS-PEG4-Biotin)
T1 construct: also called biotin-huIL-33
T1 sequence (looked up): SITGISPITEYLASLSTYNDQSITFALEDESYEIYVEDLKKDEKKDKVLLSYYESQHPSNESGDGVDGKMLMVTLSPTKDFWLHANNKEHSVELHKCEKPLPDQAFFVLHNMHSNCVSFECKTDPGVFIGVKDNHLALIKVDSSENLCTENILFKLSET
Assay: competitive ELISA, biotin-huIL-33 to coated hST2-Fc
Kindly supply the reported Maximum Blocking values for the records listed here.
Give the number first and the unit second.

Value sought for every listed binder: Maximum Blocking.
1. H1M9559N (antibody, IgG1, V domains shown, also called RG1) VH: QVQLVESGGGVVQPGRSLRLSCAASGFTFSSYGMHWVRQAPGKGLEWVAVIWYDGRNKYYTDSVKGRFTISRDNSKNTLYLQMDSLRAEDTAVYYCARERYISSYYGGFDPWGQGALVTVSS VL: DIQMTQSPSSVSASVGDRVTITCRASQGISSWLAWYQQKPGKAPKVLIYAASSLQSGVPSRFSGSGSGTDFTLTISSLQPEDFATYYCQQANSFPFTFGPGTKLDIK
2. H4H9629P (antibody, IgG4, V domains shown, also called RG4) VH: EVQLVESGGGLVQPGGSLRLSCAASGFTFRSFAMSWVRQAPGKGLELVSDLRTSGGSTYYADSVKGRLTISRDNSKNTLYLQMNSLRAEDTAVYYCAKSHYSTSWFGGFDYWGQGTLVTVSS VL: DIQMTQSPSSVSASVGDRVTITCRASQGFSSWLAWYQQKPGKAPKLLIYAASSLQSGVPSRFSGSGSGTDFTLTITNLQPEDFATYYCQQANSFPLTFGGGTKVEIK
3. H4H9659P (antibody, IgG4, V domains shown, also called RG7) VH: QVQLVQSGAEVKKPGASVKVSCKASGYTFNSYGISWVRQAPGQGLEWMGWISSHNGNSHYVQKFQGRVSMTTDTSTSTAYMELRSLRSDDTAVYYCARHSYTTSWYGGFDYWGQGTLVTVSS VL: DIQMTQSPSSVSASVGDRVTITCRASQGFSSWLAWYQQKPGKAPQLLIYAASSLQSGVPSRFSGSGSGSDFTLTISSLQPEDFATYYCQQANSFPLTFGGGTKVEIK

Solution:
1. 75%
2. 82%
3. 88%
